Data origin, for the record: patent EP4122499A1

Listing: HL [min] (Biacore) of selected compounds
# Assayed system: Human recombinant FAP (Homo sapiens, UniProt Q12884)
# Sequence (Q12884 whole entry): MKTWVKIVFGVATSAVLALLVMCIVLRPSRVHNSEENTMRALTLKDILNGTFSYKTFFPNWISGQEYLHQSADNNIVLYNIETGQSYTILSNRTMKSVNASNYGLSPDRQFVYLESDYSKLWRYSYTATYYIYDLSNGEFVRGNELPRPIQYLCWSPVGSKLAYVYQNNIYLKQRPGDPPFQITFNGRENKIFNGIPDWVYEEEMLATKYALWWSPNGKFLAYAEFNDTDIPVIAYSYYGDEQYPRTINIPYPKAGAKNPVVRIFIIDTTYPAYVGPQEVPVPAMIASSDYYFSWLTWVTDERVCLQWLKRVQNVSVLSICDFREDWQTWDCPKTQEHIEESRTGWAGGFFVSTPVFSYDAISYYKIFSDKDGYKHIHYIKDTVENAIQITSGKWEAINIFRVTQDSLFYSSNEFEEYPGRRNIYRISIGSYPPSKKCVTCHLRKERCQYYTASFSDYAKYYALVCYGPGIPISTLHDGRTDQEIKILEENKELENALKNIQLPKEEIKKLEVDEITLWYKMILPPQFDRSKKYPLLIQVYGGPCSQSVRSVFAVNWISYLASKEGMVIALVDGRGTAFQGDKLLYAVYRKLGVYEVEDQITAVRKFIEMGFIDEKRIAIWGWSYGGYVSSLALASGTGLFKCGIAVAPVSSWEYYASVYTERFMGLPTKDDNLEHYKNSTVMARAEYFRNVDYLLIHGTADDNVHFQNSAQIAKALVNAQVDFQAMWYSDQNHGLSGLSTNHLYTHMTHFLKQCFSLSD
# Test: Surface plasmon resonance assay (Biacore T200, single cycle kinetics)
# Assay type: binding
# Particulars: SPR, half-life, 25°C

[
  {
    "Compound": "O=C(NCC(=O)N1CCC[C@H]1C(=O)c1ncco1)c1ccnc2ccccc12 [drawing 297]",
    "Assayed system": "Human recombinant FAP (Homo sapiens, UniProt Q12884)",
    "Censoring qualifier": "=",
    "HL [min] (Biacore) (min)": 0.6
  },
  {
    "Compound": "N#C[C@@H]1CC(F)(F)CN1C(=O)CNC(=O)c1ccnc2ccc(-c3ccc(C(=O)NCCCNC(=O)CN4CCN(CC(=O)O)CCN(CC(=O)O)CCN(CC(=O)O)CC4)cc3)cc12",
    "Assayed system": "Human recombinant FAP (Homo sapiens, UniProt Q12884)",
    "Censoring qualifier": "=",
    "HL [min] (Biacore) (min)": 110
  },
  {
    "Compound": "CS(=O)(=O)c1ccc(-c2ccc3nccc(C(=O)NCC(=O)N4CCC[C@H]4C#N)c3c2)cc1",
    "Assayed system": "Human recombinant FAP (Homo sapiens, UniProt Q12884)",
    "Censoring qualifier": "=",
    "HL [min] (Biacore) (min)": 12
  },
  {
    "Compound": "O=C(O)CN1CCN(CC(=O)O)CCN(CC(=O)NCCCS(=O)(=O)c2ccc(-c3ccc4nccc(C(=O)NCC(=O)N5CCC[C@H]5C(=O)c5nc6ccccc6o5)c4c3)cc2)CCN(CC(=O)O)CC1 [drawing 317]",
    "Assayed system": "Human recombinant FAP (Homo sapiens, UniProt Q12884)",
    "Censoring qualifier": ">",
    "HL [min] (Biacore) (min)": 500
  }
]
